Value source: paper PMC7076710

Task for the reader: assign each of the following molecules its reported activity at 10 µM.
- study-target: GATA4–NKX2-5 transcriptional synergy (Mus musculus, UniProt P42582+Q08369)
- Construct: expressed in transfected cells; host or cells: COS-1
- Sequence (Q08369 whole entry): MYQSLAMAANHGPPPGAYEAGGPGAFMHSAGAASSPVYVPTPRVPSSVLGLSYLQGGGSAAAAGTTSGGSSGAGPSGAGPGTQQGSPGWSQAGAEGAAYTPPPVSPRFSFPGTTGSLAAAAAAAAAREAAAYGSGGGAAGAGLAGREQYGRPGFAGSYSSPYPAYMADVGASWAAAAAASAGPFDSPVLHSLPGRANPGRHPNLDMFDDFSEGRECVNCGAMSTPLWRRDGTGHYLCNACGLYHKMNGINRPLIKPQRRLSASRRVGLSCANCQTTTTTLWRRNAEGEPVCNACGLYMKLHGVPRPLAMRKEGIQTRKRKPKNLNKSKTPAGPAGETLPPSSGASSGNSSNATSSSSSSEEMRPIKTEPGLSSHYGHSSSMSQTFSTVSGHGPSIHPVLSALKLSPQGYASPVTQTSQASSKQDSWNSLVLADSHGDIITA
- Sequence (P42582 whole entry): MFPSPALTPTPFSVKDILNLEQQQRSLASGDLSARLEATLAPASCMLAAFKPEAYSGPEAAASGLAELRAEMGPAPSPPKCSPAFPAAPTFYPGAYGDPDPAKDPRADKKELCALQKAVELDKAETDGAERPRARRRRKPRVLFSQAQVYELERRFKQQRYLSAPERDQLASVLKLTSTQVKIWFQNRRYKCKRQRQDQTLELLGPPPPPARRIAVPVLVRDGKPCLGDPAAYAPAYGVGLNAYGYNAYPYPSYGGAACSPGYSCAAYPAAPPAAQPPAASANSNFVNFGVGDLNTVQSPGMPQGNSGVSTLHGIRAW
- run-description: GATA4–NKX2-5 transcriptional synergy luciferase reporter assay (3xNKE reporter, COS-1 cells)
- Format: cell-based
- test-settings: COS-1; compound 10 µM; luciferase reporter activity relative to control
Provide only the numeric value, understood in %.

Ask: Endpoint output: activity at 10 µM of CCN(CC)c1ccc(NCc2ccncc2)cc1 [SI41] . Value?
Reply: 100

Ask: activity at 10 µM lookup needed for Cc1noc(-c2ccccc2)c1C(=O)Nc1ccc(CN(C)C)cc1 [SI71] , thanks.
Reply: 105

Ask: # query: activity at 10 µM of entry CCN(c1ccc(NC(=O)c2cnsc2)cc1)C(C)C [Compound 61]
Reply: 11.6

Ask: Quick one: activity at 10 µM of Cc1cc(NC(=O)c2c(C)noc2-c2ccccc2)ccc1C(C)C [SI72] ?
Reply: 95

Ask: Entry CCN(CC)c1ccc(NC(=O)c2c(-c3ccccc3)nnn2CCC2OCCO2)cc1 [SI58] : reported activity at 10 µM = ?
Reply: 65

Ask: Give the measured activity at 10 µM of CCN(CC)c1ccc(NC(=O)c2c(-c3ccccc3)nnn2CC2CCCO2)cc1 (stereo not shown) [SI62] .
Reply: 72.5

Ask: Requested field: activity at 10 µM. Item: CCN(CC)c1ccc(NC(=O)c2c(-c3ccccc3)nnn2CC(C)C)cc1 [SI68]
Reply: 69.1

Ask: Reported activity at 10 µM for Cc1onc(-c2ccccc2)c1COc1ccc(C(=O)OCc2ccoc2)cc1 [Compound 35c] : what is it?
Reply: 101

Ask: Entry CCN(CC)c1ccc(CNCc2c[nH]nc2-c2ccccc2)cc1 [SI84] : reported activity at 10 µM = ?
Reply: 84.8

Ask: Entry Cc1onc(-c2ccccc2)c1COc1ccc(C(=O)N(C)CCCO)cc1 [Compound 36a] : reported activity at 10 µM = ?
Reply: 105

Ask: Which activity at 10 µM reading was recorded for the molecule COC(=O)c1c(-c2ccccc2)nnn1CCc1ccccc1 [SI111] ?
Reply: 106

Ask: I am curious: what activity at 10 µM value has been reported for CCCCOC(=O)c1ccc(N=Nc2c(-c3ccc(OC)cc3)n[nH]c2N)cc1 [SI96] ?
Reply: 78.6

Ask: Which value of activity at 10 µM has been reported for CCN(CC)c1ccc(NC(=O)c2c(-c3ccccc3)nnn2Cc2ccccc2)cc1 [SI60] in the records?
Reply: 72.4

Ask: Can you look up the measured activity at 10 µM of CCN(CC)c1ccc(N(CCC2OCCO2)C(=O)c2c(-c3cccc([N+](=O)[O-])c3)noc2C)cc1 [SI29] for me?
Reply: 82.5

Ask: # lookup: activity at 10 µM of CCN(CC)c1ccc(N(CCOC)C(=O)c2c(-c3cccc([N+](=O)[O-])c3)noc2C)cc1 [SI30]
Reply: 86

Ask: // activity at 10 µM lookup, key: Cc1noc(-c2ccccc2)c1C(=O)Nc1ccc2oc(-c3ccccc3)cc(=O)c2c1 [SI105]
Reply: 44.1

Ask: Given the entry COc1ccc(-c2n[nH]c(N)c2/N=N/c2ccc(C(=O)O)cc2)cc1 [SI95] , report its measured activity at 10 µM.
Reply: 89.3

Ask: Which value of activity at 10 µM has been reported for CCCOC(=O)c1ccc(OCc2c(-c3ccccc3)noc2C)cc1 [Compound 34c] in the records?
Reply: 107

Ask: Which measured activity at 10 µM value corresponds to CCCCCc1ccc(C(=S)Nc2c(-c3ccccc3)noc2C)cc1 [SI35] ?
Reply: 75.8

* * *

For each entry below, report its activity at 3 µM value.
- study-target: GATA4 transcriptional activity (Mus musculus, UniProt Q08369)
- Construct: expressed in transfected cells; host or cells: COS-1
- Sequence (Q08369 whole entry): as the sequence (Q08369 whole entry) above
- run-description: GATA4 luciferase reporter assay (tandem GATA-site reporter, COS-1 cells)
- Format: cell-based
- test-settings: COS-1; 3 µM; luciferase reporter activity relative to control

Ask: Item under review: CCN(CC)c1ccc(NC(=O)c2c(-c3ccccc3)nnn2CCc2ccccc2)cc1 . Reported activity at 3 µM?
Reply: 72.5%

Ask: Entry Cc1onc(-c2ccccc2)c1C(=O)Nc1ccc2oc(-c3ccccc3)cc(=O)c2c1 has what activity at 3 µM?
Reply: 40.2%

Ask: Consider the molecule shown here: CCN(CC)c1ccc(NC(=O)c2cnc(SC)n2-c2ccc(F)cc2)cc1 [Compound 47z] What is its recorded activity at 3 µM?
Reply: 91.4%

Ask: Find the recorded activity at 3 µM belonging to CC(=O)COC(=O)c1ccc(OCc2c(-c3ccccc3)noc2C)cc1 [Compound 35d] and report it.
Reply: 65.3%

Ask: What value of activity at 3 µM has been reported for the following molecule? CCN(c1ccc(NC(=O)c2c(-c3ccccc3)noc2C)cc1)C(C)C
Reply: 84.1%

Ask: activity at 3 µM lookup needed for CCN(CC)c1ccc(NC(=O)c2c(-c3ccsc3)noc2C)cc1 [Compound 39m] , thanks.
Reply: 103%

Ask: Endpoint output: activity at 3 µM of CCN(CC)c1ccc(NC(=O)c2csc([N+](=O)[O-])c2)cc1 [Compound 47u] . Value?
Reply: 28.7%

Ask: Look at this molecule and give its reported activity at 3 µM. CCN(CC)c1ccc(NC(=O)c2csc(C)c2-c2ccccc2)cc1 [Compound 47t]
Reply: 74.4%

Ask: Please look up its activity at 3 µM: CCN(CC)c1ccc(NC(=O)c2c(-c3ccncc3)noc2C)cc1 [Compound 39c]
Reply: 94%

Ask: Recorded activity at 3 µM of COc1ccc(-c2cc(NC(=O)c3ccc(C(C)(C)C)cc3)n[nH]2)cc1 , please.
Reply: 70.5%

Ask: Data request, read-out activity at 3 µM, for CCN(CC)c1ccc(NC(=O)c2c[nH]nc2-c2ccccc2)cc1
Reply: 103%

Ask: Given the entry CCN(c1ccc(NC(=O)c2c(C)noc2-c2ccccc2)cc1)C(C)C , report its measured activity at 3 µM.
Reply: 68%

Ask: Request the reported activity at 3 µM associated with CCN(CC)c1ccc(NC(=O)c2c(C)noc2-c2cc(C)on2)cc1
Reply: 96.7%

Ask: Param item = Cc1onc(-c2ccccc2)c1C(=O)Nc1ccc(C#C[Si](C)(C)C)cc1 ; retrieve measured activity at 3 µM.
Reply: 110%

Ask: Entry CC[N+](O)(CC)c1ccc(NC(=O)c2c(-c3ccccc3)noc2C)cc1 has what activity at 3 µM?
Reply: 87.2%

Ask: What does the record list as activity at 3 µM for CCN(CC)c1ccc(NC(=O)c2cnoc2-c2ccccc2)cc1 [Compound 47d] ?
Reply: 95.2%

Ask: Could you share which activity at 3 µM value was measured for CCN(CC)c1ccc(CNc2c(-c3ccccc3)noc2C)cc1 ?
Reply: 114%

Ask: Data request, read-out activity at 3 µM, for CCN(CC)c1ccc(NCc2c[nH]nc2-c2cc(F)cc(F)c2)cc1
Reply: 92.7%

Ask: Reported activity at 3 µM, molecule CCN(CC)c1ccc(NC(=O)c2ccnn2-c2ccccc2)cc1 : ____
Reply: 92.3%

* * *

- study-target: GATA4 transcriptional activity (Mus musculus)
- Construct: expressed in transfected cells; host or cells: COS-1
- run-description: GATA4 luciferase reporter assay (tandem GATA-site reporter, COS-1 cells)
- Format: cell-based
- test-settings: COS-1; 3 µM; luciferase reporter activity relative to control
assay-readout: activity at 3 µM
Value and unit, in that order.

Ask: Which activity at 3 µM reading was recorded for the compound C=CCN(Cc1ccc(N(CC)CC)cc1)c1c(-c2ccccc2)noc1C [Compound 30b] ?
Reply: 82.8%

Ask: Would you kindly share the measured activity at 3 µM for CCN(CC)c1ccc(NC(=O)c2cc(C)oc2-c2ccccc2)cc1 [Compound 54] ?
Reply: 72.4%

Ask: I have this compound here, CCCn1nnc(-c2ccccc2)c1C(=O)Nc1ccc(N(CC)CC)cc1 [SI65] , and I need its recorded activity at 3 µM.
Reply: 113%

Ask: Look up activity at 3 µM: CCN(CC)c1ccc(NC(=O)c2c(C)noc2-c2ccccc2)cc1 [Compound 65]
Reply: 90%

Ask: Need activity at 3 µM of CCN(CC)c1ccc(CN(C(=O)C(F)(F)F)c2c(-c3ccccc3)noc2C)cc1 [Compound 30c] , thanks.
Reply: 92.4%

* * *

- System: COS-1 cells
- run-description: MTT assay (cell viability)
- Assay type: cell-based
- test-settings: 10 µM; cell viability
assay-readout: MTT.10µM

Ask: // map Cc1onc(-c2ccccc2)c1C(=O)Nc1ccc(C#C[Si](C)(C)C)cc1 to recorded MTT.10µM (system: COS-1 cells)
Reply: 102.07

Ask: So what MTT.10µM did CCC(=O)N(Cc1ccc(N(CC)CC)cc1)c1c(-c2ccccc2)noc1C get with COS-1 cells?
Reply: 76.17

Ask: Fill in the recorded MTT.10µM for this compound, with COS-1 cells as test system: CCN(CC)c1ccc(NC(=O)c2csc(C)c2-c2ccccc2)cc1 [Compound 47t]
Reply: 104.28

Ask: Give the reported MTT.10µM for CCN(CC)c1ccc(/C=N/c2c(-c3ccccc3)noc2C)c(O)c1 (system: COS-1 cells).
Reply: 90.69

Ask: Param readout = MTT.10µM; param system = COS-1 cells; param query = CCN(CC)c1ccc(NC(=O)c2c(-c3ccsc3)noc2C)cc1 [Compound 39m] ; response: value
Reply: 88.28
